meta.source: the supplement of paper PMC12764529

test: folding stability dG unfold from trypsin proteolysis; higher = more stable
Output: class label from folding stability dG unfold. Mapping: LOW: < 3 kJ/mol; MID: ≥ 3 kJ/mol and < 10 kJ/mol; HIGH: ≥ 10 kJ/mol

- SEQ TEXT: "SAGGSAGGSAVPFVLPDGYVLEVEPDPETGLYRIRVTSPDGRTYEFTAPPDVPLADIPVVIDDSAGGSAGGS [r12_261_TrMRF]"
  CLASS NAME: "HIGH"
- SEQ TEXT: "SAGGSAGGKTIVIDMSIEEIAKKLGLEIVEVKKNKDGSVTITLKNGKKITIKVKSPEDLLKAIKSAGGSAGG [r6_13_TrROS_Hall]"
  CLASS NAME: "MID"
- SEQ TEXT: "SAGGSAMSVDPVGERTTITILYKDKPVTVPTGPLEEVEREVAAVLEEIEAKTGRKISPDTEVSFVPSAGGSA [r15_496_JUSTAS]"
  CLASS NAME: "LOW"
- SEQ TEXT: "SMSPEALKKANEFAEYIAEHFKNWNIEIDVEVEWDPDGEITIRAKIEMRPPPPPPPKPKRDPNGKWKWEGSA [r9_82_TrROS]"
  CLASS NAME: "MID"
- SEQ TEXT: "SAGGSAGGSAGGSMTSIKITYPDGSTKSASVSVDPNTGKVTTTFTDYTLSPDAKFTTISSAGGSAGGSAGGS [r10_306_JUSTAS]"
  CLASS NAME: "LOW"
- SEQ TEXT: "SAGGSAGGSMTETVVLPYPLPPGVPFHIELPDGSKSVSADPETGTLTVLVKKGTEEAVKEALASAGGSAGGS [r12_476_JUSTAS]"
  CLASS NAME: "LOW"
- SEQ TEXT: "SVKVEVSISYDPETNTITITVRVYYKDENGNWTEVATITITIKIELPPPPPKTITLKPGVKTKEEAKKALSA [r9_888_TrROS_Hall]"
  CLASS NAME: "HIGH"
- SEQ TEXT: "MYLVRIKIEYKTEDGEKVEKEITLLVEPSEEEAKEKAEELARKIAEELGLSEEEIKKIEVEVVKLGEELEES [r1_159_TrROS_Hall]"
  CLASS NAME: "HIGH"
- SEQ TEXT: "SAGGSAMTVKVRLRVRRRVFNEDGELVAEEELELEVEVEVRPPPPPPPPPLTAEELAEKLGLEPEDSAGGSA [r15_572_TrROS_Hall]"
  CLASS NAME: "HIGH"
- SEQ TEXT: "SAGGSAGGSAGEKTIKIKVKDKNGKTKTITLKIKNAKFKPGQKIEIVKVNKNGSLEIKLKSAGGSAGGSAGG [r11_733_TrROS_Hall]"
  CLASS NAME: "LOW"
- SEQ TEXT: "SAGGSALADRIKEIARENGFEPESVQFDPGNGHLMISIEPPDGRGVVVQIDIDNNNLKIQIQPLDDSAGGSA [r15_561_TrROS]"
  CLASS NAME: "MID"
- SEQ TEXT: "MKKKVTISIKRKSEVKYTKFPNGEVVPVEDLGGLTVTIEVPESELEELLKKLDIPEDEIEEITVTITPEASS [r1_351_JUSTAS]"
  CLASS NAME: "MID"
- SEQ TEXT: "SAGGMTEIEPDSEEKAEAEIEKVVEEEAEKALKSEKKNVTIKVDVKVVDPVTGKSKTYPVEKLVKLPSAGGS [r8_163_JUSTAS]"
  CLASS NAME: "LOW"
- SEQ TEXT: "SAGGSAMKLVLTFPEGLPEIPLEELAKAIEDALPEDFEVKEIKVEPLPDGGLRLTFIVNDEEVEILSAGGSA [r15_451_TrMRF]"
  CLASS NAME: "HIGH"
